# System: biotinyl-Phe-oxazolone
# ASSAY OVERVIEW: self-aminoacylation, catalytic enhancement (BFO) (fold over background); higher = more active; k-Seq, kA / k0A0; sequences stand for … in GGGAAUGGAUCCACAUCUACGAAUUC…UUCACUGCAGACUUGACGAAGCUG
Fewer inactive variants are shown than the library holds.
PROPERTY LABEL: self-aminoacylation
Answers are plain numbers.

AUUACCCUGGUCACCCAGUGA [Fam2.1 aminoacylation ribozyme variant]    46.1

// each sequence listed below needs its self-aminoacylation
1. CCGCACUUCAAGCAAUCGGUC [Fam1B.1 aminoacylation ribozyme variant]
2. CCACACUUCAAGCGAUGGGUC [Fam1B.1 aminoacylation ribozyme variant]
3. CUACUUCAACCUAUCGGUCUG [Fam1A.1 aminoacylation ribozyme variant]
4. AUUACCCGGGUCAUCGAGUGG [Fam2.1 aminoacylation ribozyme variant]
5. CCACACGUCAAGCAAUCGGAC [Fam1B.1 aminoacylation ribozyme variant]

[61.6, 3.56, 1.32, 10.1, 0.667]

Return reported self-aminoacylation values for all items listed beneath this line.
1. AUCCACCUAGGUCACCGGGUG [Fam2.2 aminoacylation ribozyme variant]
2. CCACACUACAAGGAAUCGGUC [Fam1B.1 aminoacylation ribozyme variant]
3. CUACUUGAAACAAUCGGUCCG [Fam1A.1 aminoacylation ribozyme variant]
4. AAGUUUGCUAUUAGUCUCAAG [Fam3.1 aminoacylation ribozyme variant]
5. AUUACCCUUGUCAUCGAGUAA [Fam2.1 aminoacylation ribozyme variant]

[40.4, 0.823, 0.497, 1.66, 0.935]

Need self-aminoacylation for each of these sequences.
1. CUACUACAAACAAUCGGUCUC [Fam1A.1 aminoacylation ribozyme variant]
2. CUUCACCUAGCUCAUCGGGUG [Fam2.2 aminoacylation ribozyme variant]
3. CCACACUUGAAGCAUUCGGUC [Fam1B.1 aminoacylation ribozyme variant]
4. CCAAACUUGAAGCAAUCGGUC [Fam1B.1 aminoacylation ribozyme variant]
5. CUAUUUGAAACAAUCGGUCUG [Fam1A.1 aminoacylation ribozyme variant]

[1.05, 9.04, 3.66, 0.596, 0.697]

Fill in self-aminoacylation for each of the 7 sequences listed.
1. ACUCACCUAGGUCAUCGGGUA [Fam2.2 aminoacylation ribozyme variant]
2. AUUCACCAAGGUGAUCGGGUG [Fam2.2 aminoacylation ribozyme variant]
3. AAGUUUGUUUAUAGUCGCAAG [Fam3.1 aminoacylation ribozyme variant]
4. CAACACUUCAACCAAUCGGUC [Fam1B.1 aminoacylation ribozyme variant]
5. UAGUUUGCUAAUAGUCGCAGG [Fam3.1 aminoacylation ribozyme variant]
6. AUUCGCCUAGGUCAUCGGCUG [Fam2.2 aminoacylation ribozyme variant]
7. CUACUUUACACAAUCGGUCUG [Fam1A.1 aminoacylation ribozyme variant]

1. 157
2. 17.6
3. 1.47
4. 45.6
5. 2.23
6. 6.51
7. 0.601

Value source: the supplement of paper PMC9233669
